Source listed as paper PMC10599993.

MEASUREMENT_TARGET: UniProtKB P41240
Sequence (P41240 whole entry): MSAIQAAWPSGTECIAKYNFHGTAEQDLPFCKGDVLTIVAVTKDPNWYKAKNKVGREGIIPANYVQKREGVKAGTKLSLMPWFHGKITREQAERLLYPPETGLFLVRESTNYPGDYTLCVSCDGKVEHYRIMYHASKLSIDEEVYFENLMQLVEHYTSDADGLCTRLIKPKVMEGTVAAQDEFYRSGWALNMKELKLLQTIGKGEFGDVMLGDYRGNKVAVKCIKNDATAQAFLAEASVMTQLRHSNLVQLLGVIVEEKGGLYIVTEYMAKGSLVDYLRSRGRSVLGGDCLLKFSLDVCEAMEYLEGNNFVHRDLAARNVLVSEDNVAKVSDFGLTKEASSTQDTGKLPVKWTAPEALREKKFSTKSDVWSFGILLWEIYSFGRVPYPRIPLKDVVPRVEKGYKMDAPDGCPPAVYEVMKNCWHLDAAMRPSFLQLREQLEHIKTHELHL
EXPERIMENT: biochemical
Parameters: Kinase selectivity panel, IC50 of AC484 (Supplementary Table 1)
METRIC_NAME: IC50

Query: What IC50 value was documented for this compound, CC(C)CCN[C@@H]1CCc2cc(O)c(N3CC(=O)NS3(=O)=O)c(F)c2C1 [AC484, ABBV-CLS-484] ?
Response: > 10 µM

---

MEASUREMENT_TARGET: PKCbeta2 (Homo sapiens, UniProt P05771)
Construct: isoform beta2
EXPERIMENT: biochemical
METRIC_NAME: IC50

Query: What IC50 value was documented for this compound, CC(C)CCN[C@@H]1CCc2cc(O)c(N3CC(=O)NS3(=O)=O)c(F)c2C1 ?
Response: > 10 µM

---

MEASUREMENT_TARGET: UniProtKB Q9BYT3
Sequence (Q9BYT3 whole entry): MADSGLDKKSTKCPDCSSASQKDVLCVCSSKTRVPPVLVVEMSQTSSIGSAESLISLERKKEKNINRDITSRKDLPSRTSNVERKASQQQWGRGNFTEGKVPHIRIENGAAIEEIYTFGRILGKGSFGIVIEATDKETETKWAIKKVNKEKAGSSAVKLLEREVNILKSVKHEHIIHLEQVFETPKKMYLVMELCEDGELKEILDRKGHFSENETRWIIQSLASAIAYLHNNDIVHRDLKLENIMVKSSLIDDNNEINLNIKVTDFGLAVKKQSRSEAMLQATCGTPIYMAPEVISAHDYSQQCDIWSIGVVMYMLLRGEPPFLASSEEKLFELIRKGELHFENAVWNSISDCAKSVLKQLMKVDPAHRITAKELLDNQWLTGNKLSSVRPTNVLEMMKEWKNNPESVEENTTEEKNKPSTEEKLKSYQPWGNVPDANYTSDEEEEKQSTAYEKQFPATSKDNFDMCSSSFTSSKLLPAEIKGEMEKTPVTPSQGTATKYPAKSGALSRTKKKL
METRIC_NAME: IC50

Query: Notebook: pull reported IC50 for UniProtKB Q9BYT3, entry CC(C)CCN[C@@H]1CCc2cc(O)c(N3CC(=O)NS3(=O)=O)c(F)c2C1
Response: > 10 µM

---

MEASUREMENT_TARGET: CAMK2A (Homo sapiens, UniProt Q9UQM7)
Sequence (Q9UQM7 whole entry): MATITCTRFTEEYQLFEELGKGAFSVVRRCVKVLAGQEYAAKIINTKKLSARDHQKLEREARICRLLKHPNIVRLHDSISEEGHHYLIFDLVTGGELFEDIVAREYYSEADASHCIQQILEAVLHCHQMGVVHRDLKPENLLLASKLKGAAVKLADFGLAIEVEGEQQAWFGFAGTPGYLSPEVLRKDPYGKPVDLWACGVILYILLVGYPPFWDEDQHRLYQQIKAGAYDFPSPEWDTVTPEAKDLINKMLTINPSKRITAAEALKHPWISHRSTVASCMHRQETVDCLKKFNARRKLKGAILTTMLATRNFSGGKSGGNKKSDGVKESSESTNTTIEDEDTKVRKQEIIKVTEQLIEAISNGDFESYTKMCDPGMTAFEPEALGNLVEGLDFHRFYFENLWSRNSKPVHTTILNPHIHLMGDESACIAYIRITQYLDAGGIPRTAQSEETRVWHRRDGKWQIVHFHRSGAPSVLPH
pIC50: −log10 of the molar value.
METRIC_NAME: pIC50

Query: What pIC50 value was documented for this molecule, CC(C)CCN[C@@H]1CCc2cc(O)c(N3CC(=O)NS3(=O)=O)c(F)c2C1 [AC484, ABBV-CLS-484] ?
Response: < 5.00

---

MEASUREMENT_TARGET: GRK5 (Homo sapiens, UniProt P34947)
Sequence (P34947 whole entry): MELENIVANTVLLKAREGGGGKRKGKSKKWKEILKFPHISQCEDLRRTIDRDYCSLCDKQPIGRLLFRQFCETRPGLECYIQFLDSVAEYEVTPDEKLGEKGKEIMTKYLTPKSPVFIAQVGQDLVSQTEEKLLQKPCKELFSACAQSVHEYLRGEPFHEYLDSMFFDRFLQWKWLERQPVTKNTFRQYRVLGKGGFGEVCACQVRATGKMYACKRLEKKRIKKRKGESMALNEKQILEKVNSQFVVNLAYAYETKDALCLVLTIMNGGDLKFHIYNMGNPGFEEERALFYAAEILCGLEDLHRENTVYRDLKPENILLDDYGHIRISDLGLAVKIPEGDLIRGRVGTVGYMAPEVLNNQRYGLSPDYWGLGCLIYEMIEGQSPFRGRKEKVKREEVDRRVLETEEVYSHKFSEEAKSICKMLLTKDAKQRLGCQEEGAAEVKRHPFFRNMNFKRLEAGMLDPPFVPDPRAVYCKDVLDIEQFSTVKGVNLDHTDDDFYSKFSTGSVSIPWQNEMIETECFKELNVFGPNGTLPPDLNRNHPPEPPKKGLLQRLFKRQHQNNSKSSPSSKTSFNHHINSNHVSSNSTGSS
METRIC_NAME: IC50

Query: Notebook: pull reported IC50 for GRK5 (Homo sapiens, UniProt P34947), entry CC(C)CCN[C@@H]1CCc2cc(O)c(N3CC(=O)NS3(=O)=O)c(F)c2C1
Response: > 10 µM

---

MEASUREMENT_TARGET: ErbB4 (Homo sapiens, UniProt Q15303)
METRIC_NAME: IC50

Query: What IC50 value was documented for this compound, CC(C)CCN[C@@H]1CCc2cc(O)c(N3CC(=O)NS3(=O)=O)c(F)c2C1 [AC484, ABBV-CLS-484] ?
Response: > 10 µM

---

MEASUREMENT_TARGET: Rock1 (Homo sapiens)
Sequence (Q13464 whole entry): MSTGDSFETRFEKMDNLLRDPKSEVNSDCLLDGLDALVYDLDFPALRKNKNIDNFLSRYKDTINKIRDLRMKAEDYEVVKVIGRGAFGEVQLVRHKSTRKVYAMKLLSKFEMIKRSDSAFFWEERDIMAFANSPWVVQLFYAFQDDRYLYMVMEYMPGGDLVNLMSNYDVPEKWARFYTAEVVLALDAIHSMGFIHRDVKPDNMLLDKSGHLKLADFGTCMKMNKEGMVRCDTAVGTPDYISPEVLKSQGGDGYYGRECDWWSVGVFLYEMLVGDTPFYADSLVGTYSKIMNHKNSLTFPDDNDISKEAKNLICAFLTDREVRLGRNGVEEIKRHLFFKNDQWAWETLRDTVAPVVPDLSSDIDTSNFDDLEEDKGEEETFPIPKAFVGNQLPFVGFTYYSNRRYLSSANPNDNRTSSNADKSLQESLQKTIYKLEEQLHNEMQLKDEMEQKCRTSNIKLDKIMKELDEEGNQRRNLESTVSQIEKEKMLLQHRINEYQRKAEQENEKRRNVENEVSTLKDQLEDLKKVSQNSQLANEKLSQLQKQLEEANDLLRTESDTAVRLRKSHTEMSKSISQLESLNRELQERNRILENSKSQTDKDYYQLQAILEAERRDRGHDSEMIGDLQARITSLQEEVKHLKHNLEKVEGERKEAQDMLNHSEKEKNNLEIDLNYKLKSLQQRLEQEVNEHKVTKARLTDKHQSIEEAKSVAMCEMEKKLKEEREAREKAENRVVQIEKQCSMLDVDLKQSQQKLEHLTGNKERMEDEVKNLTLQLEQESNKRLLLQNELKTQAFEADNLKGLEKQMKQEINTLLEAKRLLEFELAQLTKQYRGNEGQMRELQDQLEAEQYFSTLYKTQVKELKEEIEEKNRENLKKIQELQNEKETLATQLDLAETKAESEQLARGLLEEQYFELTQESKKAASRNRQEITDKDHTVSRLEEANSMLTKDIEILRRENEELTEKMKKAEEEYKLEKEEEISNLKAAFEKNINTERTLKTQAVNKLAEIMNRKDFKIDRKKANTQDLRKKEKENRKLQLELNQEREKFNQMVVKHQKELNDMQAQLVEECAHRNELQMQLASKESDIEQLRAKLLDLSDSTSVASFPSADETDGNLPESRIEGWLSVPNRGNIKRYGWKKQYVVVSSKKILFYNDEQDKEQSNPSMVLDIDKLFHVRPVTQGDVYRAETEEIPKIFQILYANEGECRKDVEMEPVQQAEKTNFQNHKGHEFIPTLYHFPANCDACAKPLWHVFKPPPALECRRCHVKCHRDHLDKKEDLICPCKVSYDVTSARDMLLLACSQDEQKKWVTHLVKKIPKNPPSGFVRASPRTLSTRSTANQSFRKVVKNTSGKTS
METRIC_NAME: IC50

Query: What IC50 value was documented for this compound, CC(C)CCN[C@@H]1CCc2cc(O)c(N3CC(=O)NS3(=O)=O)c(F)c2C1 ?
Response: > 10 µM

---

Protein target, amino acids: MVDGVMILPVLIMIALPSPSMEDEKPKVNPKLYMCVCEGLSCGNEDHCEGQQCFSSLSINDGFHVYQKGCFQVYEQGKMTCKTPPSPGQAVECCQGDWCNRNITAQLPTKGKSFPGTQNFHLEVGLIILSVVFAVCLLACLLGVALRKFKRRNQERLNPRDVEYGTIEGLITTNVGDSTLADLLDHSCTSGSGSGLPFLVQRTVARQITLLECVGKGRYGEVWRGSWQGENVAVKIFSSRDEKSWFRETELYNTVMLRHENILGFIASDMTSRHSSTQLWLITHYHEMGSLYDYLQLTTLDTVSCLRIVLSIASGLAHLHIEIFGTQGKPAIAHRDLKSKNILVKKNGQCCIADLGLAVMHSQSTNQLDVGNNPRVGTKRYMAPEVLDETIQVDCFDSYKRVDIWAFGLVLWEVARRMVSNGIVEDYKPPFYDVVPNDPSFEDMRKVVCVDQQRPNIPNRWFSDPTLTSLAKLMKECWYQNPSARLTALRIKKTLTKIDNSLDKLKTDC
METRIC_NAME: IC50

Query: What IC50 value was documented for this compound, CC(C)CCN[C@@H]1CCc2cc(O)c(N3CC(=O)NS3(=O)=O)c(F)c2C1 ?
Response: > 10 µM

---

MEASUREMENT_TARGET: Wee1 (Homo sapiens, UniProt P30291)
Sequence (P30291 whole entry): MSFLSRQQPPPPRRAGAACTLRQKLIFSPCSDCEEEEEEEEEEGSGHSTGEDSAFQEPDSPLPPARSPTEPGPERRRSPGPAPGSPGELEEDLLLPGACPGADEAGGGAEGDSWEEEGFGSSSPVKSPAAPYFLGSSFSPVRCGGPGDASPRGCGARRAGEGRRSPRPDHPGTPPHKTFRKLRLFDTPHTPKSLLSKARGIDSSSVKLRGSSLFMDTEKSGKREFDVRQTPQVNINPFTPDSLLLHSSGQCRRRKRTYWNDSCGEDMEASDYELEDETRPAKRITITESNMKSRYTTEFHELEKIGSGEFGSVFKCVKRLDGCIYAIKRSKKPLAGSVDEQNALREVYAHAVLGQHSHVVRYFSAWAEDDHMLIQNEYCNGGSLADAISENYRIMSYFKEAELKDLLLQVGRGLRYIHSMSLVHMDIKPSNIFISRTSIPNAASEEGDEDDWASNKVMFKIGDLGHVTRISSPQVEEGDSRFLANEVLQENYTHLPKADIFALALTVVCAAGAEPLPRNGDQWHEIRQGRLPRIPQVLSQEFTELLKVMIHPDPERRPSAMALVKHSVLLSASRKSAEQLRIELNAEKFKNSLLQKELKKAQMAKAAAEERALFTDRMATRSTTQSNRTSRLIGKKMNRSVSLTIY
METRIC_NAME: IC50

Query: What IC50 value was documented for this molecule, CC(C)CCN[C@@H]1CCc2cc(O)c(N3CC(=O)NS3(=O)=O)c(F)c2C1 [AC484, ABBV-CLS-484] ?
Response: > 10 µM

---

Target sequence: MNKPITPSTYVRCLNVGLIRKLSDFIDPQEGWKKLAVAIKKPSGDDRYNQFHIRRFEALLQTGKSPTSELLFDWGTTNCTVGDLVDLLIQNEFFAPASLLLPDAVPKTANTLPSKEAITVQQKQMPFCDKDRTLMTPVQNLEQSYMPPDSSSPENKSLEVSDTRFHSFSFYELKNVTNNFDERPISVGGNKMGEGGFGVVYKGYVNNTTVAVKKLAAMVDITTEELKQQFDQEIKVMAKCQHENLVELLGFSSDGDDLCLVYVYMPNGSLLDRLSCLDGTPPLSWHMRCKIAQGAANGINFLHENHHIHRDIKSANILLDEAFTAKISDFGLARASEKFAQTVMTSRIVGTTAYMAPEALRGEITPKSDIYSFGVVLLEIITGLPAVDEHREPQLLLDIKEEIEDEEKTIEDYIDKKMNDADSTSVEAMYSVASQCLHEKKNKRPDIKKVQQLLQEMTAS
pIC50: −log10 of the molar value.
METRIC_NAME: pIC50

Query: What pIC50 value was documented for this molecule, CC(C)CCN[C@@H]1CCc2cc(O)c(N3CC(=O)NS3(=O)=O)c(F)c2C1 [AC484, ABBV-CLS-484] ?
Response: < 5.00

---

MEASUREMENT_TARGET: JAK3 (Homo sapiens, UniProt P52333)
Sequence (P52333 1-1124): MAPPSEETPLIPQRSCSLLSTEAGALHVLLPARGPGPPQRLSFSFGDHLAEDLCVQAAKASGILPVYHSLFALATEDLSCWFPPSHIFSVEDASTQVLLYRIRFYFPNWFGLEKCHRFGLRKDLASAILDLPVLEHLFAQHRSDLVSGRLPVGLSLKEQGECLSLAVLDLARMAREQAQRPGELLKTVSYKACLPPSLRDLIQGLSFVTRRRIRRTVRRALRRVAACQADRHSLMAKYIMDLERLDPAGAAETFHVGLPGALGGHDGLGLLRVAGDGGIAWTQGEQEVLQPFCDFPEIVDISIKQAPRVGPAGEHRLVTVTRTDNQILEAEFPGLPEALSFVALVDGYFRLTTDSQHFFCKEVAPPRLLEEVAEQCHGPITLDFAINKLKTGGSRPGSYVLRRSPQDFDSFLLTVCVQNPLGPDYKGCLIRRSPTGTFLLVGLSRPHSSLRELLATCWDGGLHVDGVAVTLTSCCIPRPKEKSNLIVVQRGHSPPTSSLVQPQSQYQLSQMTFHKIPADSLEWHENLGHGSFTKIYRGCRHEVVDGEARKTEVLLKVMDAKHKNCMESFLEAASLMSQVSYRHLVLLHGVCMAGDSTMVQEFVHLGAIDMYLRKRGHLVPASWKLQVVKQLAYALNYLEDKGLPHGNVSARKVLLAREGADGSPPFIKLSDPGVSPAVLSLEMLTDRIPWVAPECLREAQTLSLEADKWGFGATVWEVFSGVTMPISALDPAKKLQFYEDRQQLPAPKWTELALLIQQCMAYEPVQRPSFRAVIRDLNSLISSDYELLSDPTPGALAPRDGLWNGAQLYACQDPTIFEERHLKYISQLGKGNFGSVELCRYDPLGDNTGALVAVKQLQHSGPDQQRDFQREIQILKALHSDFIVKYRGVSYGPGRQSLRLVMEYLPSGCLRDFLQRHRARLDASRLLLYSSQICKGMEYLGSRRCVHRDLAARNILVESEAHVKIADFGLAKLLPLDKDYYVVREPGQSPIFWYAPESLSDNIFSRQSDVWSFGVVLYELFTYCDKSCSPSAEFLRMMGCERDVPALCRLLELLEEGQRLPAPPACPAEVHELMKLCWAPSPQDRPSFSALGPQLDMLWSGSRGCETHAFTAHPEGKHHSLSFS
METRIC_NAME: IC50

Query: Notebook: pull reported IC50 for JAK3 (Homo sapiens, UniProt P52333), entry CC(C)CCN[C@@H]1CCc2cc(O)c(N3CC(=O)NS3(=O)=O)c(F)c2C1
Response: > 10 µM

---

MEASUREMENT_TARGET: UniProt P07949
pIC50: −log10 of the molar value.
METRIC_NAME: pIC50

Query: What pIC50 value was documented for this compound, CC(C)CCN[C@@H]1CCc2cc(O)c(N3CC(=O)NS3(=O)=O)c(F)c2C1 [AC484, ABBV-CLS-484] ?
Response: < 5.00

---

MEASUREMENT_TARGET: SIK1 (Homo sapiens, UniProt P57059)
Sequence (P57059 whole entry): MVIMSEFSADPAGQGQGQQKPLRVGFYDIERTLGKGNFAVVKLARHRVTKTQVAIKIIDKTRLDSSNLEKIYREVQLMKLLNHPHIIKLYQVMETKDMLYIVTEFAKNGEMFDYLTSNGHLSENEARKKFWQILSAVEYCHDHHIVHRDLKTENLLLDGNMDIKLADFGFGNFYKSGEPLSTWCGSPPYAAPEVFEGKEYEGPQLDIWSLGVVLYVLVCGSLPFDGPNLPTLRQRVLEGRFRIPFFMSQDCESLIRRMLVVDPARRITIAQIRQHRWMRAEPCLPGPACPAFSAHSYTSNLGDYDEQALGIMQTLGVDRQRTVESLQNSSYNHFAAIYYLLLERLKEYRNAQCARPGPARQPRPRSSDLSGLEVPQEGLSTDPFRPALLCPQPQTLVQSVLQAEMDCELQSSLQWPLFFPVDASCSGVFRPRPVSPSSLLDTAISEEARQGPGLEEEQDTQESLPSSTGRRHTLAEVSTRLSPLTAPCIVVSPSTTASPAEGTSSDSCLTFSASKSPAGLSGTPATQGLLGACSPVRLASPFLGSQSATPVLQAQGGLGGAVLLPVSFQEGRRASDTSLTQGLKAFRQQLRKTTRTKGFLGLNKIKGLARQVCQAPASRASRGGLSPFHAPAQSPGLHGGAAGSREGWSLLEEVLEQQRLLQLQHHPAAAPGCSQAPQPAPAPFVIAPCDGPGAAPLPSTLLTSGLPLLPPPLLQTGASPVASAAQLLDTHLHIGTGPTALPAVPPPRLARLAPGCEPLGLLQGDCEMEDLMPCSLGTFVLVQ
METRIC_NAME: IC50

Query: Notebook: pull reported IC50 for SIK1 (Homo sapiens, UniProt P57059), entry CC(C)CCN[C@@H]1CCc2cc(O)c(N3CC(=O)NS3(=O)=O)c(F)c2C1 [AC484, ABBV-CLS-484]
Response: > 10 µM

---

MEASUREMENT_TARGET: MST1 (Homo sapiens, UniProt Q13043)
Construct: gene STK4
Sequence (Q13043 1-487): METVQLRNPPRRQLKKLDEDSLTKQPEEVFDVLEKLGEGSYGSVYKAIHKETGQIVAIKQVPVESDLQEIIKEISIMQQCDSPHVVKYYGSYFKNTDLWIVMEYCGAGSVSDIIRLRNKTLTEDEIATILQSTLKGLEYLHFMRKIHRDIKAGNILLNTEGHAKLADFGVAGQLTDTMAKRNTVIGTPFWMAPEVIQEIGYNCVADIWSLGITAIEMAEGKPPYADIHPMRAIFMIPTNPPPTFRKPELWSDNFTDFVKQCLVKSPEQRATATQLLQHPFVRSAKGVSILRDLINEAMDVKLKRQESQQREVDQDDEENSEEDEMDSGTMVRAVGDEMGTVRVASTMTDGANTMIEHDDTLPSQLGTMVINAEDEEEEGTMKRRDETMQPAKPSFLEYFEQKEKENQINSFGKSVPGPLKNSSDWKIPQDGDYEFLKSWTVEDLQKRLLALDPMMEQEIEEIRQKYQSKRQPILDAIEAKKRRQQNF
EXPERIMENT: biochemical
Parameters: Kinase selectivity panel, IC50 of AC484 (Supplementary Table 1)
pIC50: −log10 of the molar value.
METRIC_NAME: pIC50

Query: What pIC50 value was documented for this compound, CC(C)CCN[C@@H]1CCc2cc(O)c(N3CC(=O)NS3(=O)=O)c(F)c2C1 ?
Response: < 5.00
